Experiment: gradient 5% acetonitrile 3 min, to 50% in 2 min, to 85% in 15 min, held 3 min, 100 µL/min
Conditions: column: Zorbax Extend-C18 2.1 x 50 mm; eluents: water / acetonitrile, 0.1% formic acid
Label met when RP-LC retention time is strictly below 800 s; at or above that, label not met.

For this compound, is RP-LC retention time lower than 800 s? CCN(Cc1ccccc1)C(=O)c1cn2c(n1)COCC2
met

For this compound, is RP-LC retention time lower than 800 s? CCc1cccc(C)c1NC(=O)Cn1cnc2nc(N3CCCC(C(=O)NC)C3)sc2c1=O (stereo not given)
met

For this compound, is RP-LC retention time lower than 800 s? Cc1ccc(CC(=O)Nc2cc(-c3cccs3)no2)cc1
not met

For this compound, is RP-LC retention time lower than 800 s? CCn1cc(-c2ccc(Cl)cc2)cc1C(=O)NCCN(C)C
met

For this compound, is RP-LC retention time lower than 800 s? Cc1ccc(CNC(=O)NC2CCN(C(=O)N3C[C@H]4C[C@H](C3)[C@H]3CCCC(=O)N3C4)CC2)cc1
met

For this compound, is RP-LC retention time lower than 800 s? Cc1ccc(Cn2c(N3CCCC(C(=O)NCC(C)C)C3)nc3ccsc3c2=O)cc1 (stereo not given)
not met

For this compound, is RP-LC retention time lower than 800 s? CCOC(=O)CCC(=O)Nc1cccc2ccc(OC)nc12
not met

For this compound, is RP-LC retention time lower than 800 s? CCCS(=O)(=O)N1CC(c2nc(CCOc3cccc(C)c3)no2)C1
not met

For this compound, is RP-LC retention time lower than 800 s? COc1cccc(C(=O)N2CCC3(CC2)NC(=O)c2ccc(F)cc2N3C)c1
met

For this compound, is RP-LC retention time lower than 800 s? COCCCn1cc(C(=O)N2CCCC2)c2nn(-c3ccccc3)c(=O)c-2c1
met

For this compound, is RP-LC retention time lower than 800 s? O=C(Cc1nnc(-c2ccc3ncccc3c2)o1)Nc1ccc(F)cc1Cl
met

For this compound, is RP-LC retention time lower than 800 s? CCOC(=O)c1noc2ncnc(NCC3CCN(Cc4ccccc4F)CC3)c12
met

For this compound, is RP-LC retention time lower than 800 s? COC(=O)CCCC(=O)Nc1ccc2[nH]c(=O)oc2c1
met

For this compound, is RP-LC retention time lower than 800 s? CCCS(=O)(=O)N1CCC(c2nc(CCOc3ccc(F)cc3)no2)C1 (stereo not given)
not met

For this compound, is RP-LC retention time lower than 800 s? O=C(Cn1nc2nc(N3CCCC3)ccn2c1=O)NCc1ccc(Cl)cc1
met

For this compound, is RP-LC retention time lower than 800 s? COCC1(O)CCOC2(CCN(Cc3ccc(F)c(Cl)c3)CC2)C1 (stereo not given)
met

For this compound, is RP-LC retention time lower than 800 s? Cc1sc2ncnc(N3CCCCC3)c2c1C(=O)Nc1cc(F)c(F)c(F)c1
not met
